Tested on: 494315-158-R-J1-PDC complex spheroid growth, percent test/control
protocol: Anticancer human tumor 494315-158-R-J1-PDC patient-derived soft tissue sarcoma cell line growth inhibition [Asc]
assayContext: second compound 0.949 µM; first compound 0.0316 µM; stronger effect = lower value
Text: Multicellular complex tumor spheroid response to apoptosis pathway targeting inhibitors Alrizomadlin, Pelcitoclax, and Dasminapant in combination with a variety of drugs and investigational agents in selected tumor cell lines […] Compounds. […] If the clinical Cmax for an agent had not been determined, the highest concentration tested was 10 microM. […]
propertyName: viability, T/C (%)
Numeric answer only, unit % assumed.

• CCN1CCN(Cc2ccc(Nc3ncc(F)c(-c4cc(F)c5nc(C)n(C(C)C)c5c4)n3)nc2)CC1 + CCN1C(C(=O)NC23CCC(C(=O)O)(CC2)CC3)C(c2cccc(Cl)c2F)C2(C(=O)Nc3cc(Cl)ccc32)C12CCCCC2 = 100
• O=C(c1cc(Cc2n[nH]c(=O)c3ccccc23)ccc1F)N1CCN(C(=O)C2CC2)CC1 + CCN1C(C(=O)NC23CCC(C(=O)O)(CC2)CC3)C(c2cccc(Cl)c2F)C2(C(=O)Nc3cc(Cl)ccc32)C12CCCCC2 = 109

Now take the following compound into account.
Exam item: Please look at this compound and report its viability, T/C: Cn1ncnc1[C@H]1c2n[nH]c(=O)c3cc(F)cc(c23)N[C@@H]1c1ccc(F)cc1 + CCN1C(C(=O)NC23CCC(C(=O)O)(CC2)CC3)C(c2cccc(Cl)c2F)C2(C(=O)Nc3cc(Cl)ccc32)C12CCCCC2
Marked response: 73.5

====

viability, T/C: recorded values
Test system: 494315-158-R-J1-PDC complex spheroid growth, percent test/control
protocol: Anticancer human tumor 494315-158-R-J1-PDC cell line growth inhibition [Asc];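 note: compound exposure lasted seven days after spheroids formed for three days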
assayContext: second compound 0.0316 µM; first compound 10 µM; stronger effect = lower value
Excerpt: Multicellular complex tumor spheroid response to apoptosis pathway targeting inhibitors Alrizomadlin, Pelcitoclax, and Dasminapant in combination with a variety of drugs and investigational agents in selected tumor cell lines […] Compounds. […] If the clinical Cmax for an agent had not been determined, the highest concentration tested was 10 microM. […]
// note: answer is a bare numeric in %

• O=C(c1cc(Cc2n[nH]c(=O)c3ccccc23)ccc1F)N1CCN(C(=O)C2CC2)CC1 + CNC(C)C(=O)NC1CN(S(=O)(=O)c2cccc(S(=O)(=O)N3CCC4CCC(C(=O)NC(c5ccccc5)c5ccccc5)N4C(=O)C(NC(=O)C(C)NC)C3)c2)CCC2CCC(C(=O)NC(c3ccccc3)c3ccccc3)N2C1=O = 20

Exam item: Answer with reported viability, T/C of C#Cc1c(F)ccc2cc(O)cc(-c3ncc4c(N5CC6CCC(C5)N6)nc(OCC56CCCN5CC(F)C6)nc4c3F)c12 (centres undefined) + CNC(C)C(=O)NC1CN(S(=O)(=O)c2cccc(S(=O)(=O)N3CCC4CCC(C(=O)NC(c5ccccc5)c5ccccc5)N4C(=O)C(NC(=O)C(C)NC)C3)c2)CCC2CCC(C(=O)NC(c3ccccc3)c3ccccc3)N2C1=O
Marked response: 78

Exam item: Find the measured viability, T/C of C=C(F)C(=O)N1CCN(c2nc(OCC3CCCN3C)nc3c2CCN(c2cccc4cccc(Cl)c24)C3)CC1CC#N (centres undefined) + CNC(C)C(=O)NC1CN(S(=O)(=O)c2cccc(S(=O)(=O)N3CCC4CCC(C(=O)NC(c5ccccc5)c5ccccc5)N4C(=O)C(NC(=O)C(C)NC)C3)c2)CCC2CCC(C(=O)NC(c3ccccc3)c3ccccc3)N2C1=O and report it.
Marked response: 0.13

Exam item: Return value of viability, T/C for input C=CC(=O)N1CCN(c2nc(=O)n(-c3c(C)ccnc3C(C)C)c3nc(-c4c(O)cccc4F)c(F)cc23)C(C)C1 (centres undefined) + CNC(C)C(=O)NC1CN(S(=O)(=O)c2cccc(S(=O)(=O)N3CCC4CCC(C(=O)NC(c5ccccc5)c5ccccc5)N4C(=O)C(NC(=O)C(C)NC)C3)c2)CCC2CCC(C(=O)NC(c3ccccc3)c3ccccc3)N2C1=O , no commentary.
Marked response: 45.2
